System: NCI/ADR-RES ovarian
experimental details: NCI-60 one-dose screen, 48 h (100 = growth as untreated, 0 = no growth, -100 = all killed)
protocol conditions: 10 µM unless noted
About 83,000 compounds went through this panel and 20% of them were active in at least one assay; those are over-represented in the sample as a whole.
reported endpoint: growth (%)
// return numeric value only (unit: %, not printed)

*Q* Find the recorded growth belonging to `COc1ccc2c(c1)c(-c1cc(N)n3nc(-c4cn(C)c5ccc(OC)cc45)cc3n1)cn2C` and report it.
*A* 120

*Q* Note, next up: Cc1ccc2sc3c(c2c1)OC(N)=C(C#N)C3c1ccc(Cl)cc1 (configuration not stated)
*A* 76.2

*Q* `c1cc(-c2nc3ccc4[nH]ncc4c3c3c2CCCC3)[nH]n1` , same question.
*A* 78.8

*Q* How about `O=S(=O)(NCCCNc1nccc(-c2[nH]c(-c3ccccc3)nc2-c2ccc(Cl)c(O)c2)n1)c1cccc(F)c1` ?
*A* 73.2

*Q* Further, for `CCCCCc1ccc(S(=O)(=O)Nc2cccc(-c3csc(NCCN4CCN(C)CC4)n3)c2)cc1` ?
*A* 85.7

***
*Q* Looking for the measured growth of `Cc1ccc(S(=O)(=O)N(CC[C@@H]2C[C@H]2c2cc3ccccc3o2)S(=O)(=O)c2ccc(C)cc2)cc1` , can you help?
*A* 94

*Q* Follow-up entry: `NC(N)=Nc1ccc(Oc2cccc(NC(N)=Nc3ccc(I)cc3F)c2)cn1`
*A* 95.2

*Q* Now the same for CC(Nc1c(C#N)cnc2ccc(-c3cnc(N)nc3)cc12)c1ccccc1 (configuration not stated)
*A* 19.3

*Q* Here is the next molecule: `Cc1ccc(-c2nn(-c3ccccc3)cc2/C=C/C(=O)c2ccc(NC(=O)CCCCCCC(=O)NO)cc2)cc1`
*A* 70.4

*Q* Record: `Cn1cc(-c2cc(N)n3nc(-c4cn(C)c5ccccc45)cc3n2)c2ccccc21`
*A* 91.3

*Q* Subsequent entry: C[C@@H]1C[C@H]2C(=O)O[C@@H](C)C(NC(=O)[C@H](Cc3cc(F)cc(F)c3)NC(=O)Nc3ccc(C4CC4)cc3F)C(=O)N3CCC[C@H]3C(=O)N3CCCC[C@H]3C(=O)N[C@@H](CO)C(=O)N2C1 (some centres not stated)
*A* 36.1

*Q* Same read-out for `Cn1ccnc1C(=O)/C=C/c1ccc(CNC(=O)c2ccc(F)cc2)cc1` ?
*A* 18.9

*Q* `CN1CCN(Cc2ccc(NC(=O)c3cncc(C#Cc4cnn5cccnc45)c3)cc2C(F)(F)F)CC1` , same question.
*A* 26.5

*Q* Param item: `CCOC(=O)c1c(Nc2ccccc2)nn2c(-c3ccc(Cl)cc3)ccnc12`
*A* 63.6

*Q* Do the same for `CS(=O)(=O)Nc1cc(-c2ccc3ncc(C#N)c(Nc4cccc(Cl)c4F)c3c2)cnc1Cl` please
*A* 33.7

*Q* Next molecule: O=C1CC(=O)N2CSCN(C(c3ccccc3)c3nc4ncncc4[nH]3)C2=N1 (configuration not stated)
*A* 99.3

*Q* Continue with `COc1cc(-c2nc(SCCC(C)C)nc(NNC(=O)c3ccncc3)c2C#N)cc(OC)c1OC`
*A* 74.1

*Q* `N=c1c2cc(-c3ccccc3)oc2ncn1/N=C/c1ccc(Cl)cc1` ?
*A* 49.6

*Q* Now give it for CC(=O)C1=C(C)NC(NNC(N)=S)=NC1c1ccccc1 (configuration not stated) too.
*A* 108

*Q* Then this molecule: `O=S(=O)(NCCCNc1nccc(-c2[nH]c(-c3ccccc3)nc2-c2ccc(Cl)c(O)c2)n1)c1ccc(Br)cc1`
*A* 42.6

*Q* Try this molecule too: `CC(=O)c1cc(C(=O)N2c3ccccc3Sc3ccccc32)n2ccc3ccccc3c12`
*A* 13.4

*Q* Could you do the same for `CC1=N[C@@H]2CN(C(=O)OC(C)(C)C)C[C@@H]2n2c1cc1ccccc1c2=O` , please?
*A* 100

Taken from PubChem BioAssay (NCI).
